Exercise: state measured IC50 at 3 days for each of the compounds provided.
Test: Cytotoxicity, sulforhodamine B (SRB) assay, cancer cell panel
Assay type: cell-based, human
Details: panel of 15 human cancer cell lines; no significant cytotoxicity
Procedure: Low or absent cytotoxicity is a mandatory requirement for subsequent therapeutic use of the compounds as glycosidase inhibitors. Therefore, their cytotoxicity was determined. […] The cytotoxicity of the compounds was evaluated using the SRB (Kiton-Red S, ABCR) micro culture colorimetric assay using […] cells in 96-well plates with the seeding of the cells on day 0 applying appropriate cell densities to prevent confluence of the cells during the period of the experiment. […]

Answer for every listed entry: what is its IC50 at 3 days? The entries follow.
1. CCCO[C@@H]1O[C@H](CN)[C@@H](O)[C@H](O)C1(F)F [compound 8]
2. CCCO[C@@H]1O[C@H](CN)[C@@H](O)C(F)(F)[C@H]1O [compound 16]

> 50 µM
> 50 µM
